parameter: melting point

compound=O=C(O)c1cc(I)cc(C(F)(F)F)c1 parameter="melting point" result="182 to 184 °C"
compound=O=C(O)c1ccc(N2CCNC2=O)cc1 parameter="melting point" result="313 to 315 °C"
compound=COc1ccc(-c2nc3c(s2)C(=O)CCC3)cc1 parameter="melting point" result="112 to 114 °C"
compound=O=C(O)c1cc(F)c(F)cc1I parameter="melting point" result="127 to 129 °C"
compound=O=C(O)c1cnn(C2CCCCC2)c1 parameter="melting point" result="197 to 199 °C"
compound=Cc1ccc(OCc2cccc(C(=O)O)c2)cn1 parameter="melting point" result="166 to 168 °C"
compound="CC(N)c1ccc(NC(=O)c2ccncc2)cc1 (centres undefined)" parameter="melting point" result="159 to 161 °C"
compound=O=C(CO)Nc1ccc(C(F)(F)F)cc1 parameter="melting point" result="104 to 106 °C"
compound=Cc1cccn2cc(COc3ccc(F)cc3Cl)nc12 parameter="melting point" result="128 to 130 °C"
compound=COc1ccccc1NC(=O)CC(N)=S parameter="melting point" result="146 to 148 °C"
compound=O=C(NCc1ccccn1)OCC(F)(F)F parameter="melting point" result="50 to 52 °C"
compound=CC(=O)c1ccccc1NS(=O)(=O)c1cccs1 parameter="melting point" result="150 to 152 °C"
compound=CC(C)(C)c1nnc(N)o1 parameter="melting point" result="226 to 228 °C"
compound=O=C(O)Cc1csc(-c2ccc(O)cc2)n1 parameter="melting point" result="97 to 99 °C"
compound=CCOc1ccc(NC(N)=S)cc1 parameter="melting point" result="164 to 166 °C"
compound=CCOc1cccc(C(N)=S)c1 parameter="melting point" result="118 to 120 °C"
compound=CC(C)NS(=O)(=O)c1ccccc1C(=O)O parameter="melting point" result="111 to 113 °C"
compound=O=C(CCl)NCc1ccc(Cl)cc1 parameter="melting point" result="107 to 109 °C"
compound=Nc1n[nH]c(Cc2cccc(F)c2)n1 parameter="melting point" result="179 to 181 °C"
compound="CCOC(=O)N1CCCC(C(=O)O)C1 (centres undefined)" parameter="melting point" result="68 to 70 °C"
compound=O=C(O)C1CCN(C(=O)c2ccccc2)CC1 parameter="melting point" result="144 to 146 °C"
compound=Nc1c(Br)ccc(Br)c1C(=O)O parameter="melting point" result="145 to 147 °C"
compound="CC(Oc1ccc(-c2nc3ccccc3s2)cc1)C(=O)O (centres undefined)" parameter="melting point" result="217 to 219 °C"
compound=Cc1cc2ncn(Cc3ccc(Cl)cc3)c2cc1C parameter="melting point" result="143 to 145 °C"

---

Entries and their measured melting point follow.
parameter: melting point

molecule="NC(Cn1cncn1)c1ccccc1 (stereo unspecified)" parameter="melting point" result="87 to 89 °C"
molecule=COC(=O)c1ccc(CCC(=O)O)cc1 parameter="melting point" result="113 to 115 °C"
molecule=O=S(=O)(Cl)c1c(Cl)ccc2c(Cl)ccnc12 parameter="melting point" result="155 to 157 °C"
molecule=Cc1cc(C)c2c(N)c(C(=O)O)sc2n1 parameter="melting point" result="145 to 147 °C"
molecule="O=C(NCCc1ccc(F)cc1)C1Cc2ccccc2CN1 (stereo unspecified)" parameter="melting point" result="102 to 104 °C"
molecule=O=S1(=O)CCCN1c1ccc(Br)cc1 parameter="melting point" result="108 to 110 °C"
molecule=Cc1cc(C(=O)CCl)c(C)n1CCc1ccccc1 parameter="melting point" result="80 to 82 °C"
molecule="O=C(O)c1ccc2c(c1)C(=O)N(CC1CCCO1)C2=O (stereo unspecified)" parameter="melting point" result="153 to 155 °C"
molecule="O=C(O)CC1CCc2ccccc21 (stereo unspecified)" parameter="melting point" result="58 to 60 °C"
molecule=Nc1ncc(-c2ccc(F)cc2)s1 parameter="melting point" result="209 to 211 °C"
molecule=NC(=O)Nc1ccc(F)c(Cl)c1 parameter="melting point" result="166 to 168 °C"
molecule=Nc1cc(-c2ccccc2Br)no1 parameter="melting point" result="74 to 76 °C"
molecule=CC(C)(C)OC(=O)N(CC(=O)O)c1ccccc1 parameter="melting point" result="84 to 86 °C"
molecule=Nc1ccccc1CN1CCC(O)CC1 parameter="melting point" result="112 to 114 °C"
molecule=Cc1[nH]c2ccc(C(N)=O)cc2c1C parameter="melting point" result="169 to 171 °C"
molecule=O=C(O)CCc1ccnc2ccccc12 parameter="melting point" result="197 to 199 °C"
molecule=CCCNC(=O)CC#N parameter="melting point" result="53 to 55 °C"
molecule=COc1ccc(S(=O)(=O)N2CCOCC2)cc1C(=O)O parameter="melting point" result="180 to 184 °C"
molecule=COc1ccc(S(N)(=O)=O)c(C)c1C parameter="melting point" result="202 to 204 °C"
molecule=CCOC(=O)/C(C#N)=C/Nc1cc(Cl)ccc1OC parameter="melting point" result="132 to 134 °C"
molecule=Cc1cc(C)c(CCNC(=O)CCl)c(C)c1 parameter="melting point" result="143 to 145 °C"
molecule=O=[N+]([O-])c1ccc(-c2nnc(CCl)o2)cc1 parameter="melting point" result="128 to 130 °C"
molecule=CCOC(=O)C(=O)Cc1ccc2ccccc2n1 parameter="melting point" result="130 to 132 °C"
molecule=O=S(=O)(c1cccnc1)N1CCNCC1 parameter="melting point" result="88 to 90 °C"
molecule="CC(=O)NC1CCCN(C(=O)CCl)C1 (stereo unspecified)" parameter="melting point" result="110 to 112 °C"
molecule=Cc1nnc(-c2cccc(C(=O)O)c2)o1 parameter="melting point" result="241 to 243 °C"
molecule=Cn1cc(C(=O)O)c(-c2cccs2)n1 parameter="melting point" result="179 to 181 °C"
molecule=Cn1cc(C=O)c(-c2cc3ccccc3o2)n1 parameter="melting point" result="151 to 153 °C"
molecule=CCOC(=O)Cc1nc2cc(C)c(C)cc2[nH]1 parameter="melting point" result="169 to 171 °C"
molecule=O=C(O)c1cc(OCC(F)(F)F)c2ccccc2n1 parameter="melting point" result="206 to 208 °C"
molecule="CC(O)c1ccccc1NC(=O)c1ccccc1 (stereo unspecified)" parameter="melting point" result="111 to 113 °C"
molecule=Cc1nnc(CO)s1 parameter="melting point" result="83 to 85 °C"
molecule="NC(=O)NC(CC(=O)O)c1ccc(Br)cc1 (stereo unspecified)" parameter="melting point" result="199 to 201 °C"
molecule=CCOc1cccc(S(N)(=O)=O)c1 parameter="melting point" result="129 to 131 °C"
molecule=N#CC1(C(=O)O)CCOCC1 parameter="melting point" result="162 to 164 °C"
molecule=COc1cc(C=O)ccc1OCCC(=O)O parameter="melting point" result="130 to 132 °C"
molecule=Cn1cc([N+](=O)[O-])cc1C(=O)NCC(=O)O parameter="melting point" result="130 to 132 °C"
molecule=O=C(O)c1cn(Cc2ccccc2)nc1-c1ccc(Cl)cc1 parameter="melting point" result="162 to 165 °C"
molecule=Cc1nc2sccc2c(=O)n1N parameter="melting point" result="181 to 183 °C"
molecule=CC(=O)c1ccc(S(=O)(=O)Nc2ccc(C(=O)O)cc2)cc1 parameter="melting point" result="152 to 154 °C"
molecule=NC(=O)c1ccsc1NC(=O)CCC(=O)O parameter="melting point" result="243 to 245 °C"
molecule=COc1ccc(NS(=O)(=O)c2ccc(C(C)=O)cc2)cc1 parameter="melting point" result="121 to 123 °C"
molecule=Nc1cc(C(=O)O)c2ccccc2c1 parameter="melting point" result="178 to 180 °C"
molecule=N#CCCC(=O)c1ccco1 parameter="melting point" result="80 to 84 °C"
molecule=CNC(=O)CNC(=S)NN parameter="melting point" result="156 to 158 °C"
molecule=O=c1cc(CCl)nc2sccn12 parameter="melting point" result="180 to 182 °C"
molecule=Ic1nnc(-c2ccccc2)s1 parameter="melting point" result="105 to 107 °C"
molecule=NS(=O)(=O)c1ccc([N+](=O)[O-])cc1[N+](=O)[O-] parameter="melting point" result="149 to 151 °C"
molecule=CS(=O)(=O)c1cccc(C(=O)c2ccc(F)cc2F)c1 parameter="melting point" result="129 to 131 °C"
molecule=Clc1nc(-c2cccnc2)nc2scc(-c3ccccc3)c12 parameter="melting point" result="155 to 157 °C"
molecule=O=C(O)CNC(=O)C(F)(F)F parameter="melting point" result="152 to 154 °C"

// data source = a melting point compilation (Tetko et al.)
